# SYSTEM NAME: HvSSI (Hordeum vulgare)
# Construct: gene SSI; without predicted chloroplast transit peptide, N-terminal His-tag, codon-optimised, E. coli
# Sequence (Q9M5A3 32-643): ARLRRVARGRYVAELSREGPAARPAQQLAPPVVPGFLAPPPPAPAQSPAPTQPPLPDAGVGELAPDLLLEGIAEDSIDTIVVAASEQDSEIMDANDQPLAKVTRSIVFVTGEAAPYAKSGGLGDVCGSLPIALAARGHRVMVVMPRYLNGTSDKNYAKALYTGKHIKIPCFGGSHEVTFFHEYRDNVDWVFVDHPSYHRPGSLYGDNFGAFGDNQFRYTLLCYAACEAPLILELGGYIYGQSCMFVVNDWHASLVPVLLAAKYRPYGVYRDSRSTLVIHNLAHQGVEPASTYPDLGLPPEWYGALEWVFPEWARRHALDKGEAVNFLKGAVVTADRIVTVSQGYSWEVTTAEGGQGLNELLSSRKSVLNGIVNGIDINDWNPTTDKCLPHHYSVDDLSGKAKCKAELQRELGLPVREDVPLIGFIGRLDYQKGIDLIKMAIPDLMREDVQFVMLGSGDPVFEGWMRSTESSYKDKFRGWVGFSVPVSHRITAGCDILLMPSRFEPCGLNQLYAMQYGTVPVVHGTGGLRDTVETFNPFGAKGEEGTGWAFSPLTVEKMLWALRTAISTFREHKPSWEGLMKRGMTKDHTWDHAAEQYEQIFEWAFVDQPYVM
# ASSAY: biochemical
# Design: Thermofluor (differential scanning fluorimetry, Sypro orange), shift of melting temperature of HvSSI versus no additive
# CONDITIONS USED: 10 mM; 0.1 mg/mL HvSSI, 1X Sypro orange, 20 mM Tris pH 8.0, 100 mM NaCl; read-out: Δ Tm to reference
# Protocol: HvSSI unfolding temperatures were measured with a variant of the Thermofluor method (Niesen et al., [2007]). Details are given in S.I. The effect of additives on SSI stability was studied in some detail with the thermofluor assay; details for many additives are given in S.I. The strongest effects were from sugars, which increased protein stability by 1°C for every 50 mM hexose present as oligosaccharides, with glucose and other monosaccharides having only half the effect.
TEST READOUT: ΔTm at 10000 µM (°C)

OC[C@H]1O[C@H](O[C@H]2[C@H](O)[C@@H](O)C(O)O[C@@H]2CO)[C@H](O)[C@@H](O)[C@@H]1O (mixture of isomers)    0.3
OC[C@H]1O[C@H](O[C@H]2[C@H](O)[C@@H](O)[C@@H](O[C@H]3[C@H](O)[C@@H](O)[C@@H](O[C@H]4[C@H](O)[C@@H](O)[C@@H](O[C@H]5[C@H](O)[C@@H](O)C(O)O[C@@H]5CO)O[C@@H]4CO)O[C@@H]3CO)O[C@@H]2CO)[C@H](O)[C@@H](O)[C@@H]1O (stereo partly shown)    1.3

A: C[C@H]1O[C@H](O[C@H]2[C@H](O)[C@@H](O)[C@@H](O[C@H]3[C@H](O)[C@@H](O)C(O)O[C@@H]3CO)O[C@@H]2CO)[C@H](O)[C@@H](O)[C@@H]1N[C@H]1C=C(CO)[C@@H](O)[C@H](O)[C@H]1O (stereo partly shown)
B: OCC1OC(OC2C(CO)OC(OC3C(CO)OC(OC4C(CO)OC(OC5C(CO)OC(OC6C(CO)OC(OC7C(CO)OC(OC8C(CO)OC(O)C(O)C8O)C(O)C7O)C(O)C6O)C(O)C5O)C(O)C4O)C(O)C3O)C(O)C2O)C(O)C(O)C1O (stereo not shown)
-- ask Parameter check: reported ΔTm at 10000 µM is higher for which label, A or B ? Provide the label of your selected option as the answer.
-- reply B
